- ASSAY TARGET: Androgen receptor (Homo sapiens) (UniProt P10275)
- Sequence (P10275 whole entry, looked up): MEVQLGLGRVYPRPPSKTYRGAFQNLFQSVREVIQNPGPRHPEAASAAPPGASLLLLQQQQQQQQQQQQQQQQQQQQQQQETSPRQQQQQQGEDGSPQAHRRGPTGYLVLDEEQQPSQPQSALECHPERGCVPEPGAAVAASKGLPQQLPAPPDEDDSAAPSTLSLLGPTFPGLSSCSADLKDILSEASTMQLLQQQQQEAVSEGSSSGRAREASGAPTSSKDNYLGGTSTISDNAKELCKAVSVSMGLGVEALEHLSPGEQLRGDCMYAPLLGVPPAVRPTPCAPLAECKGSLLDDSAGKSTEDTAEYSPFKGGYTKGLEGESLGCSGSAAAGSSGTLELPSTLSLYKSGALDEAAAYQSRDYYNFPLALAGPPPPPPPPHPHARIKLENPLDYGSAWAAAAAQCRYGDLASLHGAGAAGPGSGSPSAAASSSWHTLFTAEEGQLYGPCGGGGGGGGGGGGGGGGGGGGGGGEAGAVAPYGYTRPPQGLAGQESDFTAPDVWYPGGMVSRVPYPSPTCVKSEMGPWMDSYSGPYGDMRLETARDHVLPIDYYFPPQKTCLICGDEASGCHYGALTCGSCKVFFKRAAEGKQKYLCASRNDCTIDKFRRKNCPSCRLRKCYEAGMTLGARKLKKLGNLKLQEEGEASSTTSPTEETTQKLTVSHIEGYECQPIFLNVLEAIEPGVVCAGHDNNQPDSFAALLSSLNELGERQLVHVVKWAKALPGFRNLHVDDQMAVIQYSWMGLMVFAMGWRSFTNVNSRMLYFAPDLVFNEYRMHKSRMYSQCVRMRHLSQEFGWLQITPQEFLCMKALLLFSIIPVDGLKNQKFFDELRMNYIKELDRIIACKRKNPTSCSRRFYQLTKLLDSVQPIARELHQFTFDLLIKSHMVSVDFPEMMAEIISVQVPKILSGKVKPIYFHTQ
- RUN DESCRIPTION: qHTS assay to identify small molecule agonists of the androgen receptor (AR) signaling pathway using the MDA cell line (AID 743040; further: on the % scale 0 is the no-effect control and ±100 the full control effect; nearly all actives have a fitted effect of over 20% in size)
- CONDITIONS USED: MDA-kb2 AR-luc cells, MMTV luciferase, 16 h; series mostly up to 70.3 µM
Activity calls are given as the source filed them. The call rests on the fitted dose curve; in most records, active means well fitted activation curve with a large enough effect in the repeat runs; inconclusive means weak or mixed curves; inactive means flat fitted curve, though single readings scatter.
REPORTED ENDPOINT: outcome

Illustrative cases are given below, each with its answer.
>>> result("O=C(c1ccc(O)cc1)c1ccc(O)cc1")
"inactive"
>>> result("c1ccc(OCc2ccc(CCCN3CCOCC3)cc2)cc1")
"inactive"
>>> result("NC(N)=NN=C(/C=C/c1ccc([N+](=O)[O-])o1)/C=C/c1ccc([N+](=O)[O-])o1")
"inactive"
>>> result("NC(N)=N/N=C/c1c(Cl)cccc1Cl")
"inactive"
>>> result("O=C(C(=O)c1ccc(Br)cc1)c1ccc(Br)cc1")
"inactive"

Query string: For CC(C)c1ccc2c(C(C)C)cc(C(C)C)c(S(=O)(=O)O)c2c1 , what is its reported outcome?
Result string: inactive

Query string: For O=C(NS(=O)(=O)/C=C/c1cccs1)c1ccc(F)cc1Br , what is its reported outcome?
Result string: inactive

Query string: For CCCOc1ccc2nc(NC(=O)OC)[nH]c2c1 , what is its reported outcome?
Result string: inactive

---

- RUN DESCRIPTION: qHTS assay to test for compound auto fluorescence at 535 nm (green) in HepG2 cells (AID 720675); further: on the % scale 0 is the no-effect control and ±100 the full control effect
- CONDITIONS USED: green autofluorescence 485/535 nm, 1 h; series mostly up to 91.3 µM
Calls of active or inactive are those of the source. Calls come from the whole dose curve; as a rule, active = well fitted curve in the direction sought with a large enough effect in the repeat runs; inconclusive = weak or mixed curves; inactive = flat fitted curve, though single readings scatter.
REPORTED ENDPOINT: fluorescence, % of fluorescein control

Illustrative cases are given below, each with its answer.
>>> result("CC(C)CC=O")
"inactive"
>>> result("O=C(Nc1ccccc1)OCC(CN1CCCCC1)OC(=O)Nc1ccccc1 (stereo not given)")
"0.0386% [at 18.6 µM] (inactive)"
>>> result("S=C(S)NCCNC(=S)S")
"inactive"
>>> result("CCOc1ccc2[nH]cc(C(=O)NCc3ccccc3)c(=O)c2n1")
"inactive"

Query string: For COCCOCCOCCOCCOC , what is its reported fluorescence, % of fluorescein control?
Result string: inactive

---

- ASSAY TARGET: Glucocorticoid receptor (Homo sapiens) (UniProt P04150)
- Sequence (P04150 whole entry, looked up): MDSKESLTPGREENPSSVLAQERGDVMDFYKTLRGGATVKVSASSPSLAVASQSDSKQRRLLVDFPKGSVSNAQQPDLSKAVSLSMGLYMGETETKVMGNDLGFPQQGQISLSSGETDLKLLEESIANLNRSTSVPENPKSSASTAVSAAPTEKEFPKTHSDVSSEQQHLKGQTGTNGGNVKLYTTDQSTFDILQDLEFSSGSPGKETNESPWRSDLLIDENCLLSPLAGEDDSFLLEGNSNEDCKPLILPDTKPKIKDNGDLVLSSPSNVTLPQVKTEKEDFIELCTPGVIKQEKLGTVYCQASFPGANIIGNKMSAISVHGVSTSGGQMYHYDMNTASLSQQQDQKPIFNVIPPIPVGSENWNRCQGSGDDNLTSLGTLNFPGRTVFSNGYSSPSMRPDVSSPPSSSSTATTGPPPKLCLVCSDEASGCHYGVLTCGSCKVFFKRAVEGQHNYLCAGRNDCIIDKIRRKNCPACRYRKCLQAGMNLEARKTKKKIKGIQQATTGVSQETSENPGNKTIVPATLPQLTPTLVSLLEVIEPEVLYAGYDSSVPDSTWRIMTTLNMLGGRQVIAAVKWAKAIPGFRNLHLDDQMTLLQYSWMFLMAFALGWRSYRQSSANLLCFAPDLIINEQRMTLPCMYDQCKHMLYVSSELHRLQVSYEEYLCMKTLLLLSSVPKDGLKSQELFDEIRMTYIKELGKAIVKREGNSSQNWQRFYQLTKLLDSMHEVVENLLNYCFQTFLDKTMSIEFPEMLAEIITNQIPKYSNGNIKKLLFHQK
- RUN DESCRIPTION: qHTS assay to identify small molecule agonists of the glucocorticoid receptor (GR) signaling pathway (AID 720691); further: on the % scale 0 is the no-effect control and ±100 the full control effect
- CONDITIONS USED: GR-bla HeLa, beta-lactamase reporter ratio, 18 h; series mostly up to 62.4 µM
Records with an inconclusive call do not appear. Active and inactive are the calls of the source. Calls follow the shape of the dose curve; as a rule, active = well fitted activation curve with a large enough effect in the signal ratio in the repeat runs (not every such curve was filed as active); inconclusive = weak or mixed curves, or effect the other way; inactive = no such curve, though single readings can be large or run the other way; the % refers to the signal ratio.
Thanks in advance; please answer with one of these: y (active), n (inactive)

>>> group("Cc1nc2ccccc2n1Cc1ccc(Cl)cc1")
"n"

Query string: Fill in: this test's call for CCCC(=O)OCC is ___
Result string: n

Query string: Fill in: this test's call for CCOC(=O)CC(=O)c1cc(F)c(Cl)nc1Cl is ___
Result string: n

Query string: Fill in: this test's call for CC[C@H](C)[C@@H](C(=O)O)n1sc2ccccc2c1=O is ___
Result string: n

---

- RUN DESCRIPTION: qHTS assay to identify small molecule agonists of the peroxisome proliferator-activated receptor delta (PPARd) signaling pathway - cell viability counter screen (AID 743211); further: nearly all actives have a fitted effect of over 55% in size; further: potency means the concentration at half of the fitted maximal effect
- CONDITIONS USED: PPARd-bla HEK293H viability, CellTiter-Glo luminescence, 17 h; series mostly up to 62.6 µM
Results filed as inconclusive are left out. The source made the active and inactive calls. Calls come from the whole dose curve; as a rule, active = well fitted cell-killing curve with a large enough effect in the repeat runs; inconclusive = weak or mixed curves; inactive = no such curve, though single readings can be large or run the other way.
REPORTED ENDPOINT: Potency

Illustrative cases are given below, each with its answer.
>>> result("CCOC(=O)[C@H](CCc1ccccc1)N[C@H]1CCc2ccccc2N(CC(=O)O)C1=O")
"29.8 µM (active)"
>>> result("c1ccc(CNCc2ccccc2)cc1")
"inactive"
>>> result("CC(C)c1cccc(C(C)C)c1NC(=O)NS(=O)(=O)c1cc(C(C)(C)O)co1")
"inactive"
>>> result("CCCCCCCCCCCCCCCBr")
"inactive"
>>> result("Cc1ccc(C(C)c2ccc(C)c(C)c2)cc1C")
"inactive"
>>> result("CCCCCCCCN(C)C")
"inactive"
>>> result("CC(=O)N(CC(=O)N(C)C)c1ccccc1")
"inactive"
>>> result("CCCCCCCCCCCCCCC1CO1 (stereo not drawn)")
"inactive"
>>> result("CCN(CC)C(C)=O")
"inactive"
>>> result("CC(Cc1cccc(C(F)(F)F)c1)NCCOC(=O)c1ccccc1 (stereo not drawn)")
"21.1 µM (active)"

Query string: For O=C1Nc2cc(Cl)ccc2Oc2ccccc21 , what is its reported Potency?
Result string: inactive

Query string: For Cn1c(NCCN(CCO)CCCc2ccc([N+](=O)[O-])cc2)cc(=O)n(C)c1=O , what is its reported Potency?
Result string: inactive

Query string: For Cc1cc(CC(=O)O)c(C)n1-c1ccc(Cl)cc1 , what is its reported Potency?
Result string: inactive
